# assayed.target: ATP-dependent translocase ABCB1 (Homo sapiens, UniProt P08183)
# Sequence (P08183 whole entry): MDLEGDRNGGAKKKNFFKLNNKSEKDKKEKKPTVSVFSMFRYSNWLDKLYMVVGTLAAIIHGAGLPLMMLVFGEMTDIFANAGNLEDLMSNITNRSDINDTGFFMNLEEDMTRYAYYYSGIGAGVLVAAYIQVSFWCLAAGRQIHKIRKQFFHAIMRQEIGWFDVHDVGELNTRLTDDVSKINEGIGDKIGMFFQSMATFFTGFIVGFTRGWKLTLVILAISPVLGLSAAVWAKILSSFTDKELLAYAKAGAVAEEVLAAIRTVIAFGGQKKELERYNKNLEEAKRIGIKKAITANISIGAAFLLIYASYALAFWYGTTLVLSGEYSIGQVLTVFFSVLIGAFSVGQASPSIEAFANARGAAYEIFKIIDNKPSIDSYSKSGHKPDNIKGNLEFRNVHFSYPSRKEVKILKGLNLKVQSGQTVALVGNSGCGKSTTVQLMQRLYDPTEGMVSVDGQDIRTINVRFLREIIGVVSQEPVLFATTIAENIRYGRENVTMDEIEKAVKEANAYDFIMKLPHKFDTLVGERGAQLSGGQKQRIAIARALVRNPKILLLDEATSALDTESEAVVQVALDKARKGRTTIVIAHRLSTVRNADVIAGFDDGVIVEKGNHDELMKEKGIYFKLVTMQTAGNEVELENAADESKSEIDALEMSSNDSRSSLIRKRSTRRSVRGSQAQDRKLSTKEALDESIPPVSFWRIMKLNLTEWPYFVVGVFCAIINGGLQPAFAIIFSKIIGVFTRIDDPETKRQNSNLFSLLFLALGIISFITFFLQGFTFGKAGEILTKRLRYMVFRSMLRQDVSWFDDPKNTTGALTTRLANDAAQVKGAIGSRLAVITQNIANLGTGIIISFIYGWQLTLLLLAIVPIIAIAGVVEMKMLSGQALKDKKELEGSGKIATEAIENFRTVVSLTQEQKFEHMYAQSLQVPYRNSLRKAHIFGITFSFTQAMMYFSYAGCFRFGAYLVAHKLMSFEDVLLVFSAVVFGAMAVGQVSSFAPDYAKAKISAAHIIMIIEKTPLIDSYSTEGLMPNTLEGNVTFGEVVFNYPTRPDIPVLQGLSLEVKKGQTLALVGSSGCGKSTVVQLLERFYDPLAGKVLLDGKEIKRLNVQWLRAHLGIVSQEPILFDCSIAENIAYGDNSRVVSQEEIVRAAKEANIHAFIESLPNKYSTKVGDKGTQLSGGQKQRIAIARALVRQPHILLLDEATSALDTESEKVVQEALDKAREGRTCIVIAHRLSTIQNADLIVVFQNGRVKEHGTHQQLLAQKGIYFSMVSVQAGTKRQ
# procedure.text: Inhibition of P-gp-mediated doxorubicin efflux in human Lucena 1 cells assessed as ratio of doxorubicin fluorescence intensity in presence of compound to doxorubicin fluorescence intensity in absence of compound at 1.56 uM preincubated for 1 hr followed by doxorubicin addition measured after 1 hr by flow cytometry
# Format: cell-based
// reported Ratio for each item listed
Enter a number only.

Examples with their reported Ratio follow.
CC/C(=C(/CC)c1ccc(OCCCOC(C)=O)cc1)c1ccc(OCCCOC(C)=O)cc1; 1.02
CC/C(=C(/CC)c1ccc(OCCCCOC(C)=O)cc1)c1ccc(OCCCCOC(C)=O)cc1; 1.01
CC/C(=C(/CC)c1ccc(OCCCO)cc1)c1ccc(OCCCO)cc1; 1.05
CC/C(=C(/CC)c1ccc(OCCCCO)cc1)c1ccc(OCCCCO)cc1; 1.1

Next, consider the following compound.
Q: So what does the record say about Ratio for "CC/C(=C(/CC)c1ccc(OCCOC(C)=O)cc1)c1ccc(OCCOC(C)=O)cc1" ?
A: 1.03

----------
# assayed.target: ATP-dependent translocase ABCB1 (Homo sapiens, UniProt P08183)
# procedure.text: Inhibition of P-gp-mediated doxorubicin efflux in human Lucena 1 cells assessed as ratio of doxorubicin fluorescence intensity in presence of compound to doxorubicin fluorescence intensity in absence of compound at 25 uM preincubated for 1 hr followed by doxorubicin addition measured after 1 hr by flow cytometry
# Assay type: cell-based
The label depends only on Ratio: Satisfied if it is at least 1, Not satisfied if it is smaller.

Solved cases (2 shown):
CC/C(=C(/CC)c1ccc(OCCCS(=O)(=O)[O-])cc1)c1ccc(OCCCS(=O)(=O)[O-])cc1.[Na+].[Na+]; Satisfied
CC/C(=C(/CC)c1ccc(OCCOC(C)=O)cc1)c1ccc(OCCOC(C)=O)cc1; Satisfied

Q: Does the reported Ratio for "COc1cc([C@@H]2CC(O)=Nc3c2cnn3Cc2cccs2)ccc1O" fall at or above the 1 mark?
A: Not satisfied

Q: Also need "COc1ccc(-n2nc(C)c3c2NC(=O)C[C@@H]3c2ccc(O)c(OC)c2)cc1" , thanks.
A: Satisfied

Q: Thanks! And "Cc1c(-c2ccc(O)c(O)c2)n(C)c2ccc(O)cc12" ?
A: Not satisfied

Q: How about "CC/C(=C(/CC)c1ccc(OCCCCO)cc1)c1ccc(OCCCCO)cc1" ?
A: Satisfied

Q: Next up: "CC/C(=C(/CC)c1ccc(OC)cc1)c1ccc(OC)cc1"
A: Satisfied

Q: Let us now turn to "CC/C(=C(/CC)c1ccc(OCCCO)cc1)c1ccc(OCCCO)cc1"
A: Satisfied

Q: Then this molecule: "CC/C(=C(/CC)c1ccc(OCCCOC(C)=O)cc1)c1ccc(OCCCOC(C)=O)cc1"
A: Satisfied

Q: Next molecule: "CC/C(=C(/CC)c1ccc(OCCOS(=O)(=O)[O-])cc1)c1ccc(OCCOS(=O)(=O)[O-])cc1.[Na+].[Na+]"
A: Satisfied

Q: Input "CC/C(=C(/CC)c1ccc(OCCCCOC(C)=O)cc1)c1ccc(OCCCCOC(C)=O)cc1"
A: Satisfied

Q: // repeat for "CC/C(=C(/CC)c1ccc(OCCCCS(=O)(=O)[O-])cc1)c1ccc(OCCCCS(=O)(=O)[O-])cc1.[Na+].[Na+]" and report
A: Not satisfied

Q: Try this molecule next: "CC/C(=C(\c1ccccc1)c1ccc(OCCN(C)C)cc1)c1ccccc1"
A: Satisfied

Q: Follow-up entry: "CC/C(=C(/CC)c1ccc(O)cc1)c1ccc(O)cc1"
A: Satisfied

Q: Input "COc1ccc2[nH]c(-c3ccc(OC)c(OC)c3)c(C)c2c1"
A: Not satisfied

Q: Now try "Cc1c(-c2ccc(O)c(O)c2)[nH]c2ccc(O)cc12" .
A: Not satisfied

Q: Please answer likewise for "CC/C(=C(/CC)c1ccc(OCCO)cc1)c1ccc(OCCO)cc1"
A: Satisfied

Q: Same question for "Cc1c(-c2ccc(O)cc2)[nH]c2ccc(O)cc12" please.
A: Not satisfied
